B1: LOXL2 (parent)
chain: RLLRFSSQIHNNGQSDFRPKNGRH

Variants of: B1
METHOD DESCRIPTION: protein stability index of a GFP-peptide fusion (GPS, HEK-293T) (PSI 1-6); higher = more stable;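 also: lentivirally expressed fusions sorted by FACS into six bins by GFP to DsRed ratio, PSI derived from sequencing read proportions per bin multiplied by bin number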
CONDITIONS USED: c terminus: a fixed tail appended
What protein stability index was measured for each of the following?
Format: numeric value only, no unit, no commentary.

Note to self: protein stability index recorded for `Q8D` was 3.81

Notebook: `N11R` , protein stability index read as 2.2

protein stability index for `S6R` is 2.99

Entry `L3E` , protein stability index reported as 4.34

# variant `R1C` ; its protein stability index = 2.78

Form: variant = `Q14S` ; protein stability index = 3.15

Value of measured protein stability index for the entry `S7L` : 1.78

`S6F` yielded protein stability index of 2.09

Data point: `G13R` ; protein stability index = 3.19

// protein stability index lookup, variant = `R23A` , result: 2.36

Lab book: protein stability index of `P19H` noted as 2.54

`Q8G` yielded protein stability index of 2.87

# protein stability index of `Q8T` = 2.67

The variant listed as `R23F` has a reported protein stability index of 1.84

Given item `S7C` , the value recorded as its protein stability index is 2.41

Kindly note the recorded protein stability index for `D16Q` , which is 2.51

The variant `N21W` showed protein stability index equal to 1.52

Query `K20W` yields protein stability index of 2.08

For record `I9V` the listed protein stability index is 2.99

Record `R4S` . Reported protein stability index: 2.79

The variant listed as `N11Y` has a reported protein stability index of 2.17

Lab note: measured protein stability index of `S15L` was 2.36

Note to self: protein stability index recorded for `R23C` was 1.97

get_value(item= `S7Y` , readout=protein stability index) returns 2.25

`H24M` has a reported protein stability index of 2.68

Input `Q8F` . Output protein stability index: 2.07

According to the records, this variant `N21C` displays protein stability index of 2.13

Measured protein stability index of `S6D` : 3.81

protein stability index recorded for this variant, `S15P` , is 3.12

In plain terms, `G22A` has a documented protein stability index of 2.57

So, `F17L` ? Its protein stability index was 2.75

Kindly note the recorded protein stability index for `Q8H` , which is 2.5

Lab book: protein stability index of `H24N` noted as 2.89

Value of measured protein stability index for the entry `F5N` : 3.92

Record `H10C` . Reported protein stability index: 2.46

protein stability index measured on `R4A` = 2.87

# protein stability index (variant: `I9C` ) is 3.11

So for `N21I` , the logged protein stability index turned out to be 1.79

Briefly, protein stability index measured for `G22F` : 2.11

Recorded protein stability index (variant `Q8N` ): 2.95

// field: protein stability index; key: `D16R` ; value = 2.23

Item: `R18K` | protein stability index: 3.23

Per the records, this variant ( `K20E` ) has protein stability index equal to 3.45

For this variant ( `S15Y` ), measured protein stability index is 2.83

The measured protein stability index associated with `R4D` reads 3.16

Please fill in: protein stability index reported for `D16W` = 2.37

Measured protein stability index, `R23Q` : 2.4

Just so you know, measured protein stability index for `R18V` came out at 3.04

The recorded protein stability index for `N11Q` is 2.46

For this variant ( `H10P` ), measured protein stability index is 3.12

Recorded protein stability index (variant `H24K` ): 3.5

The recorded protein stability index for entry `R23D` equals 2.99

// sample `L3V` , its protein stability index was 3.44

protein stability index in this record for `Q14E` : 3.26

What the record says about `G22N` : protein stability index is 2.58

protein stability index measured on `R23H` = 2.36

Record summary for `N11W` : reported protein stability index = 2.51

So, `F17C` ? Its protein stability index was 2.8

// sample `N12G` , its protein stability index was 3.16

Just so you know, measured protein stability index for `I9Y` came out at 2.4

Lookup result for `K20M` ; measured protein stability index: 1.92

Documented protein stability index of `G22W` : 2.22

Sample `F5Y` ; protein stability index observed: 2.96

The reported value for `R1K` in terms of protein stability index is 3.15

In plain terms, `R1H` has a documented protein stability index of 2.67

Lookup result for `Q8S` ; measured protein stability index: 2.73

Looking up `R1V` , I found its protein stability index recorded as 1.89

Per the records, this variant ( `N11C` ) has protein stability index equal to 2.17

Memo: `H24C` , reported protein stability index: 2.14

Record `N12I` . Reported protein stability index: 2.27

Field protein stability index (entry `P19N` ) reads 2.84

`H24Y` has a reported protein stability index of 2.67

Form field protein stability index, entry `Q8P` : 3.54

The measured protein stability index associated with `D16L` reads 2.7

For record `R23L` the listed protein stability index is 2.04

Notebook: `R23T` , protein stability index read as 3.29

What the record says about `P19G` : protein stability index is 2.78

// sample `R18S` , its protein stability index was 3.05

For `I9E` the variant record lists protein stability index as 3.93

What the record says about `D16V` : protein stability index is 2.15

Value of measured protein stability index for the entry `N11F` : 2.23

Looking up `S15V` , I see its protein stability index listed as 2.44

protein stability index measured on `Q14Y` = 1.91

According to the records, this variant `R4Q` displays protein stability index of 2.57

Record `L2R` . Reported protein stability index: 4.07

The value of protein stability index measured for the variant `F17S` turned out to be 3.15

Measured protein stability index of `D16S` : 2.73

So, `R4K` ? Its protein stability index was 2.27

protein stability index reported for this variant `N21E` : 2.97

Entry `R18Y` , protein stability index reported as 2.59

For record `N11M` the listed protein stability index is 2.81
